# target-under-test: Translocator protein (Mus musculus) (UniProt P50637)
# Sequence (P50637 whole entry, looked up): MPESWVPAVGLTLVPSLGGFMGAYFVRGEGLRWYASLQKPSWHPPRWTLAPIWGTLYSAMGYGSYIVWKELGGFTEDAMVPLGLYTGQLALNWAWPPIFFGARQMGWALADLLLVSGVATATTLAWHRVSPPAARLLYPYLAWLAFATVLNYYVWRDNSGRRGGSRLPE
# measurement-notes: Inhibition of TSPO in mouse HT22 cells assessed as protection against amyloid beta (1 to 42)-induced mitochondrial membrane potential loss by measuring recovery of mitochondrial membrane potential at 5 uM preincubated for 10 mins followed by amyloid beta (1 to 42) addition measured every 1 hr for 3 hrs by JC1 staining based fluorescence assay relative to control
# Assay type: cell-based
# Parameters: scale not given: the % may be the effect or the level left
# recorded-conditions: HT-22
I'd be grateful if you could share measured Activity for these entries.
Numbers only, in %.

>>> obs_value("O=C(c1ccc(CSc2nc3ncccc3n2Cc2ccc(F)cc2)cc1)N1CCCCC1")
37

Batch lookup, Activity per entry.
1. O=C(NCCN1CCCCC1)c1ccc(Cn2c(Cc3c(Cl)cccc3Cl)nc3ccccc32)cc1
2. CCC1CCCCN1C(=O)Cn1c(SCc2cccc(C(F)(F)F)c2)nc2ncccc21 (stereo not given)
3. COc1ccc(OC)c(Cc2nc3ccccc3n2CC(=O)Nc2cc(C(C)C)ccc2C)c1
4. COc1ccc(OC)c(-c2nc3ccccc3n2CC(=O)Nc2cc(Oc3ccc(-c4ccccc4)cc3)ccc2F)c1
5. Cc1ccc(C(C)C)cc1NC(=O)Cc1nc2ccccc2n1Cc1ccc(C(=O)NCCCN(C)C)cc1
6. NC(=O)CN1CCCC1=O
7. O=C(Cn1c(-c2cc(Cl)ccc2Cl)nc2ccccc21)Nc1cc(Cl)cc(Cl)c1
8. Cc1ccc(C(C)C)cc1NC(=O)Cn1c(-c2cc(Cl)ccc2Cl)nc2ccccc21

[89, 25, 81, 0, 68, 60, 91, 91]

Specify measured Activity for CN1CCC(NC(=O)c2ccc(Cn3c(Cc4c(Cl)cccc4Cl)nc4ccccc43)cc2)CC1 . 81
